Molecular target: T1, full length human tau protein 2N4R (hT40) (human, UniProt P10636 1-758)
T1 construct: recombinant; also called T441
T1 sequence (P10636 other isoform, or with tags, fused parts or gaps limits assumed): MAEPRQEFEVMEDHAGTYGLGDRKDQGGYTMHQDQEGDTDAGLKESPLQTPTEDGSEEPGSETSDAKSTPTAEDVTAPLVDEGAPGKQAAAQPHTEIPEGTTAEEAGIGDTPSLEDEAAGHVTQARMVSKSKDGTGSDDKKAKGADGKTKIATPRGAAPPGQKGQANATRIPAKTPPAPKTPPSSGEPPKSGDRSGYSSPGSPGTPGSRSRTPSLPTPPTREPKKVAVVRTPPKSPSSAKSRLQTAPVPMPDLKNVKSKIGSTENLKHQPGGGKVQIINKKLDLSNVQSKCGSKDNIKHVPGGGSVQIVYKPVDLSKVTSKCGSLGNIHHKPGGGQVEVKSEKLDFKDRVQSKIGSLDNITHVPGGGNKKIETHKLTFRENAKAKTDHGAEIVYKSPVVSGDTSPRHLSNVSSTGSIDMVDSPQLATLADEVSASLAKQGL
Experiment: hT40 ELISA
Endpoint Name: EC50 (read off the curve)

Solved entries (count: 4):
Binder	Result
CE3 scAb (scFv, not shown: small tags and cut ends, scAb) scFv: QVRLQESGPSLVKPSQTLSVTCTVSGFSLISNAVGWVRQAPGKVPESLAGCSSDGKCYYNSALKSRLDITRDTSKNQISLSLSSVTTDDAAVYYCTRGYYPVYGYDYLGTIDYWGPGLLVTVSSEGKSSGASGESKVDDQAVLTQPSSVSGSLGQRVSITCSGSSSNVGRNDVAWFQQLPGSGLRTIIYGTTSRPSGIPDRFSGSKSGVTATLTIDSLQAEDEADYFCASGDSSAINDIFGSGTRLTVLG	~0.1 µg/mL
CA12 scAb (scFv, not shown: small tags and cut ends, scAb) scFv: QVQLQGSGPSLVKPSQTLSLTCTVSGFSFDSYYVGWVRQAPGKALEWLGNIYSTGRAFYNPALKSRLSITRDTSKSQVSLSVSSVTIEDTALYYCVRGSYYHGGGNGMVDFFDYWSPGLLVTVSSEGKSSGASGESKVDDQVVRTQPSSVSGSLGQRVSITCSGSSSNVGYGNYVGWFQQVPGSAPKLLIYAATSRASGVPDRFSGSRSGNTATLTIDSLQAEDEADYYCSSYQRGNTGVFGSGTRLTVLG	~0.02 µg/mL
CE2 scAb (scFv, not shown: small tags and cut ends, scAb) scFv: QVQLQESGPSLVKPSQTLSLTCTVSGFSLTNYPVGWVRQAPGKALEWIGNIENDGSANYASALKSRLSITRDTSKNQVSLSLSSATTEDTAVYYCGREFGGSDGYTYFVDIDYWGPGLLVTVSSEGKSSGASGESKVDDQAVLTQPSSVSKSLGQSVSITCSGSSSNVGYGNYVSWFQQVPGSAPKILIYGATSRASGVPDRFSGSRSGNTATLTITSLQAEDEADYYCASYDGSSSGVFGSGTRLTVLG	~0.1 µg/mL
S1D12 scAb (scFv, not shown: small tags and cut ends, scAb) scFv: QVQLQESGPSLVKPSQTLSLTCTVSGFSLNNNAVGWVRQAPGKVPESLVGCSSDGTCYYNSALKSRLDITRDTSKNQISLSLSSVTTDDAAVYYCTRGHYSIYGYDYLGTIDYWGPGLLVTVSSEGKSSGASGESKVDDQAVLTQPSSVSGSLGQRVSITCSGSSSNVGGGNSVGWYQHLPGSGLKTIIYDTNSRPSGVPDRFSGSRSGNTATLTINSLQAEDEGDYYCVTGDSTTHDDLVGSGTRLTVLG	~0.005 µg/mL

IN: What does the data say about its EC50 (read off the curve)? Entry: S1F4 scAb (scFv, not shown: small tags and cut ends, scAb) scFv: QVQLQESGPSLVKPSQTLSLTCTVSGFSLSSNSVGWVRQAPGKAPEWVAGIDTDGEEGYNPALNSRLSITRDTSKSQVSLSLSSVTSEDTAVYYCVRSYRADGLAYGYVQAIDYWGPGLLLTISSEGKSSGASGESKVDDQAVVTQPSSVSGSLGQRVSITCSGSFIGISSVGWFQQLPGSGLRTVIVASDGRPSGVPDRFSNSKSGNTATLTISSLQAEDEADYFCGSSDRTQYTGVFGSGTRLTVLG
OUT: ~0.05 µg/mL
